These data points were gathered from patent US12447153B2.

measured.target: ErbB2 WT (Homo sapiens (Human), UniProt P04626)
Sequence (P04626 23-1255): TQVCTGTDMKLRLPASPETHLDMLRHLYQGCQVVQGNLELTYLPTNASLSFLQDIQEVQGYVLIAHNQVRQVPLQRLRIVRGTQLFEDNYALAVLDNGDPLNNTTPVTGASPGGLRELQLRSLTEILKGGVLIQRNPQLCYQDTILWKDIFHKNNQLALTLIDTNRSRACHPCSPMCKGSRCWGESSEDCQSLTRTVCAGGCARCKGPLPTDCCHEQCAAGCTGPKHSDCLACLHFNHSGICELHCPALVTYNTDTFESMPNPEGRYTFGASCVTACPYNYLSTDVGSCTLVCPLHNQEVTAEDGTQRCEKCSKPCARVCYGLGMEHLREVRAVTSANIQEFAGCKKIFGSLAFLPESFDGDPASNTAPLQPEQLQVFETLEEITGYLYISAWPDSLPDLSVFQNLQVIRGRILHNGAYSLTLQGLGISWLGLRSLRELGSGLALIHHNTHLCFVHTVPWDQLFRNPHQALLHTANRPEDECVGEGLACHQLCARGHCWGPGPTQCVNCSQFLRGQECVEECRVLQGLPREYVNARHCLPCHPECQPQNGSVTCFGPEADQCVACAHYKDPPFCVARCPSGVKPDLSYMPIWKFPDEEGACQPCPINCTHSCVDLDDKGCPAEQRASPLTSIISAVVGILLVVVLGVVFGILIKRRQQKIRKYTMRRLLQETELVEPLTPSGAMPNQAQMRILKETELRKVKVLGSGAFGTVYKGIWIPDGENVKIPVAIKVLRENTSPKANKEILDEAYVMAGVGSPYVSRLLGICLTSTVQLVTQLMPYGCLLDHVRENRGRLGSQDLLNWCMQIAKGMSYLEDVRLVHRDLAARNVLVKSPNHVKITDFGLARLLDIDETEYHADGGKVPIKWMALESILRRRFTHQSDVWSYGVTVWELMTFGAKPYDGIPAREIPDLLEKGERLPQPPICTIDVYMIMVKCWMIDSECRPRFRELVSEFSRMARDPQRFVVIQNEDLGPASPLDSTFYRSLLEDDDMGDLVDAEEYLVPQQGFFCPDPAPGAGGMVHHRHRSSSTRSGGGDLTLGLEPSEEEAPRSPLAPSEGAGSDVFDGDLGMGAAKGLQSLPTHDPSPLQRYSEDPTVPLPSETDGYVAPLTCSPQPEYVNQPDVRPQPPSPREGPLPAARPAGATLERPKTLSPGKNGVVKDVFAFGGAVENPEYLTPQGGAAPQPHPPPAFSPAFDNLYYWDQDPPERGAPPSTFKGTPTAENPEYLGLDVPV
protocol.summary: ErbB Enzyme Assay (HTRF KinEASE-TK), Assay 2
Assay type: biochemical
assay.setup: ErbB2 WT enzyme
pIC50: −log10 of the molar value.
parameter.measured: pIC50

// below: answered compounds
- C=CC(=O)N1[C@@H]2CC[C@H]1CC(c1ccc3ncnc(Nc4cc(C)c(Oc5ccn6ncnc6c5)cc4F)c3n1)C2 (stereo partly shown): 6.77
- C=CC(=O)N1CCC(Oc2ccc3ncnc(Nc4ccc(Oc5ccc6cn(C)nc6c5)c(C)c4F)c3n2)CC1: 5.48
- C=CC(=O)N1[C@@H]2CC[C@H]1[C@H](c1ccc3ncnc(Nc4ccc(Oc5ccn6ncnc6c5)c(C)c4F)c3n1)C2 (single isomer, unassigned) [Example 228]: 6.89
- C=CC(=O)N1C[C@H]2C[C@@H]1CN2c1ccc2ncnc(Nc3ccc(Oc4ccn5ncnc5c4)c(Cl)c3F)c2n1: 6.90

a. C=CC(=O)N1CCCN(c2ccc3ncnc(Nc4ccc(Oc5ccc6c(c5)ncn6C)c(C)c4)c3n2)CC1
b. C=CC(=O)N1CC[C@H]2C[C@@H]1CN2c1ccc2ncnc(Nc3ccc(Oc4ccc5c(c4)ncn5C)c(C)c3F)c2n1
c. C=CC(=O)N1CCC(c2ccc3ncnc(Nc4ccc(Oc5ccc6c(c5)ncn6C)c(C)c4)c3n2)CC1C (stereo not shown)
# input Order the records by pIC50, with each subsequent value no larger than the one before. Please express your ranking as an ordered list of the labels.
# output a, c, b
